In vitro neutralization IC50: recorded values
# target-under-test: HIV-1 Env of strain CAP210.2.00.E8 (HIV-1)
# unit: µg/mL | format: bare number

3BNC60 IgG (wild type) (antibody) heavy: QVHLSQSGAAVTKPGASVRVSCEASGYKISDHFIHWWRQAPGQGLQWVGWINPKTGQPNNPRQFQGRVSLTRQASWDFDTYSFYMDLKAVRSDDTAIYFCARQRSDFWDFDVWGSGTQVTVSS light: DIQMTQSPSSLSARVGDTVTITCQANGYLNWYQQRRGKAPKLLIYDGSKLERGVPARFSGRRWGQEYNLTINNLQPEDVATYFCQVYEFIVPGTRLDLKRTVA    4.7

Query (binder): 3BNC117 IgG (wild type) (antibody) heavy: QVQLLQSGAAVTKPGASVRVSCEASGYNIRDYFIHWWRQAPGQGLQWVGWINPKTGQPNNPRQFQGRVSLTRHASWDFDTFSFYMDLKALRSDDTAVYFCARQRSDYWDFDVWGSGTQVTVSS light: DIQMTQSPSSLSASVGDTVTITCQANGYLNWYQQRRGKAPKLLIYDGSKLERGVPSRFSGRRWGQEYNLTINNLQPEDIATYFCQVYEFVVPGTRLDLKRTVA ; field requested: In vitro neutralization IC50
11

Where these numbers come from: patent US20200165325A1
